# assayTarget: PAFR (Homo sapiens, UniProt P25105)
# Sequence (P25105 whole entry): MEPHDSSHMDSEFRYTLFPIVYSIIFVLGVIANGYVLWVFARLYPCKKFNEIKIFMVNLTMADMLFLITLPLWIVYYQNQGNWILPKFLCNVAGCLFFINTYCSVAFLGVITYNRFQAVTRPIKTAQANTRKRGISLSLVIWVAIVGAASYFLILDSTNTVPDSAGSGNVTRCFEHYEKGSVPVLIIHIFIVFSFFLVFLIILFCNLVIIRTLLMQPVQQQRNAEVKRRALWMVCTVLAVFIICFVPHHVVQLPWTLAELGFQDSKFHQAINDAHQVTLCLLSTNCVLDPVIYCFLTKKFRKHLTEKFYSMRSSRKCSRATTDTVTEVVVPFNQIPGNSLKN
# assayNotes: cellular HTRF IP1 assay: inhibition of PAFR activation by PAF C-16 ligand (endpoint assay)
# Format: cell-based
# Parameters: expressed in transfected cells; host or cells: HEK293
# conditionNotes: HEK293 cells overexpressing human PAFR; PAF ligand 11 nM; Table 2
quantity: log10 of IC50 (log10 of the value in nM)
Hey, these are logged values: log10 of IC50, nM being the unit before logging.

In the examples that follow, each entry is paired with its recorded log10 of IC50.
Cc1nnc2n1-c1sc3c(c1C(c1ccccc1Cl)=NC21CC1)C[C@H](C(=O)NC1CC2(CCC2)C1)C3 [Example 80] | 0.30
CCc1nnc2n1-c1sc3c(c1C(c1ccccc1Cl)=NC21CC1)C[C@H](C(=O)N1CCOCC1)C3 [Example 119] | 1.18
Cc1nnc2n1-c1sc3c(c1C(c1ccccc1Cl)=NC21CC1)C[C@H](C(=O)N[C@H]1CC[C@@H](F)C1)C3 [Example 70] | 0.41
Cc1nnc2n1-c1sc3c(c1C(c1ccccc1O)=NC21CC1)C[C@H](C(=O)N1CCOCC1)C3 [Example 9] | 1.72
Cc1nnc2n1-c1sc3c(c1C(c1ccccc1Cl)=NC21CC1)C[C@H](C(=O)N(C)C1CCC1)C3 [Example 21] | 0.04
Cc1nnc2n1-c1sc3c(c1C(c1ccccc1Cl)=NC21CC1)C[C@H](C(=O)NC1(C(F)(F)F)CC1)C3 [Example 16] | 0.61

Return reported log10 of IC50; argument: Cc1nnc2n1-c1sc3c(c1C(c1ccccc1Cl)=NC21CC1)C[C@H](C(=O)N[C@H]1C[C@H](C#N)C1)C3 [Example 49]
0.89

Entry Cc1nnc2n1-c1sc3c(c1C(c1ccccc1Cl)=NC21CC1)C[C@H](C(=O)N(C)[C@H]1CCCC[C@H]1O)C3 [Example 102] has what log10 of IC50?
0.84

Could you tell me which log10 of IC50 is on file for Cc1nnc2n1-c1sc3c(c1C(c1ccccc1Cl)=NC21CC1)C[C@H](C(=O)N[C@H]1CCc2c(F)cccc21)C3 [Example 92] ?
-0.05

For the compound shown here, Cc1nnc2n1-c1sc3c(c1C(c1ccccc1Cl)=NC21CC1)C[C@H](C(=O)NC1CCc2ncsc2C1)C3 (stereo partly shown) [Example 34] , give the reported log10 of IC50.
0.58
